- experiment.description: Plasma concentration of d5OT by LC-MS/MS after IN or IV d5OT
- Format: in vivo, rhesus macaques (Macaca mulatta)
- cond: rhesus monkey, plasma; 60 min; 80 IU IN condition; present study; read-out: Plasma d5OT
result.type: level at 1 h (ng/mL)
Give your result in ng/mL as a bare value.

// lookup level at 1 h for "CC[C@H](C)[C@@H]1NC(=O)[C@H](Cc2ccc(O)cc2)NC(=O)[C@@H](N)CSSC[C@@H](C(=O)N2CCC[C@H]2C(=O)N[C@@H](CC(C)C)C(=O)NCC(N)=O)NC(=O)[C@H](CC(N)=O)NC(=O)[C@H](CCC(N)=O)NC1=O"
0.284

---

- experiment.description: Brain tissue concentration of administered d5OT by LC-MS/MS (terminal experiment)
- Type: in vivo, rhesus macaques (Macaca mulatta)
- cond: female, rhesus monkey, brain (striatum); Striatum; 40 IU IN; monkey #1 (F); perfused 148 min post-dose; LC-MS/MS
result.type: tissue level at time at 148 min (ng/g)
Report only the number, with the unit ng/g understood.

Quick one: tissue level at time at 148 min for "CC[C@H](C)[C@@H]1NC(=O)[C@H](Cc2ccc(O)cc2)NC(=O)[C@@H](N)CSSC[C@@H](C(=O)N2CCC[C@H]2C(=O)N[C@@H](CC(C)C)C(=O)NCC(N)=O)NC(=O)[C@H](CC(N)=O)NC(=O)[C@H](CCC(N)=O)NC1=O" ?
2.41

---

- experiment.description: Brain tissue concentration of administered d5OT by LC-MS/MS (terminal experiment)
- Format: in vivo, rhesus macaques (Macaca mulatta)
- cond: female, rhesus monkey, brain (thalamus); Thalamus; 40 IU IN; monkey #1 (F); perfused 148 min post-dose; LC-MS/MS
result.type: tissue level at time at 148 min (ng/g)
Numbers only here, please. The scale is ng/g.

Reported tissue level at time at 148 min for "CC[C@H](C)[C@@H]1NC(=O)[C@H](Cc2ccc(O)cc2)NC(=O)[C@@H](N)CSSC[C@@H](C(=O)N2CCC[C@H]2C(=O)N[C@@H](CC(C)C)C(=O)NCC(N)=O)NC(=O)[C@H](CC(N)=O)NC(=O)[C@H](CCC(N)=O)NC1=O" : what is it?
0.23

---

- experiment.description: Brain tissue concentration of administered d5OT by LC-MS/MS (terminal experiment)
- Format: in vivo, rhesus macaques (Macaca mulatta)
- cond: male, rhesus monkey, brain (brainstem); Brainstem; 80 IU IN; monkey #4 (M); perfused 135 min post-dose; LC-MS/MS
result.type: tissue level at time at 2.25 h (ng/g)
The figure you give is taken to be in ng/g; do not add the unit.

# query: tissue level at time at 2.25 h of entry CC[C@H](C)[C@@H]1NC(=O)[C@H](Cc2ccc(O)cc2)NC(=O)[C@@H](N)CSSC[C@@H](C(=O)N2CCC[C@H]2C(=O)N[C@@H](CC(C)C)C(=O)NCC(N)=O)NC(=O)[C@H](CC(N)=O)NC(=O)[C@H](CCC(N)=O)NC1=O [d5OT]
0.24

---

- experiment.description: Brain tissue concentration of administered d5OT by LC-MS/MS (terminal experiment)
- Assay type: in vivo, rhesus macaques (Macaca mulatta)
- cond: male, rhesus monkey, brain (OFC); OFC; 80 IU IN; monkey #2 (M); perfused 136 min post-dose; LC-MS/MS
result.type: tissue level at time at 136 min (ng/g)
Numeric answer only, unit ng/g assumed.

# input molecule: "CC[C@H](C)[C@@H]1NC(=O)[C@H](Cc2ccc(O)cc2)NC(=O)[C@@H](N)CSSC[C@@H](C(=O)N2CCC[C@H]2C(=O)N[C@@H](CC(C)C)C(=O)NCC(N)=O)NC(=O)[C@H](CC(N)=O)NC(=O)[C@H](CCC(N)=O)NC1=O" ; wanted: its tissue level at time at 136 min
2.04

---

- experiment.description: Plasma concentration of d5OT by LC-MS/MS after IN or IV d5OT
- Format: in vivo, rhesus macaques (Macaca mulatta)
- cond: rhesus monkey, plasma; 60 min; IV condition; present study; read-out: Mean plasma concentration of d5OT
result.type: level at 1 h
Number first, unit second: that is the form wanted.

Which value of level at 1 h has been reported for "CC[C@H](C)[C@@H]1NC(=O)[C@H](Cc2ccc(O)cc2)NC(=O)[C@@H](N)CSSC[C@@H](C(=O)N2CCC[C@H]2C(=O)N[C@@H](CC(C)C)C(=O)NCC(N)=O)NC(=O)[C@H](CC(N)=O)NC(=O)[C@H](CCC(N)=O)NC1=O" in the records?
1.99 ng/mL
